# Test Name: TROY pathway blockers in reporter cells – Q293 LMP1-TROYcd cells, NF-kB luciferase, uHTS, primary screen (AID 1347056)
# Condition Context: 4 h, at 10 µM, active compounds read high
The whole screen tested about 360,000 compounds, of which about 3,600 (1%) were called active. This is one part of a sample in which actives are shown more often than they occur.
Entries and their inhibition
Please reply with the bare figure in % and do not write the unit itself.

Below: 3 compounds and their reported inhibition.
Compound: O=C(Nc1cccnc1)c1noc2c1CCCCC2
Parameter Measured: inhibition
Value Units: %
Test Value: 64.2

Compound: COc1cccc2cc(C(=O)N(C)C)c(=O)oc12
Parameter Measured: inhibition
Value Units: %
Test Value: 11

Compound: O=C(c1noc2c1CCCC2)N1CCc2ccccc2C1
Parameter Measured: inhibition
Value Units: %
Test Value: -14.7

What does the record list as inhibition for O=C(/C=C/c1cnc2ccccc2n1)NC1CCCCCC1 ? -49.1

Then this compound: CC(C)c1nc(CNC(=O)CC2C(=O)NCCN2Cc2cccc(F)c2F)cs1 (centres undefined) 4.78

Request: COc1cccc2cc(C(=O)N3CCN(C(=O)c4ccccc4)CC3)c(=O)oc12 -10

Also check COc1cccc(N2C(=O)CC(N3CCc4ccccc4C3)C2=O)c1 (centres undefined) 2.65

Please give the result for CCN1CCN(C(=O)C2(NC(=O)Nc3cccc(F)c3)CCCCC2)CC1 too. 7.69

// next record O=C(CN(Cc1ccccc1)C(=O)CCC(=O)Nc1ccccn1)NCCc1ccccc1 -13.3

Data provenance: PubChem BioAssay AID1347056
